FYI, the data here is from the supplement of paper PMC10037445.

Test system: RAW-Dual
experimentalDetails: NF-kB SEAP reporter activity, fold change vs agonist alone; cytotoxicity flag (confluency mask): cytotoxic (confluency <70% of control); higher = enhanced NF-kB activity
assaySetup: agonist: ODN 1826 (TLR9) 0.5 ug/mL
Whole data set: some 2,900 compounds, median “NF-kB SEAP reporter activity, fold change vs agonist alone” near 0.99, cut for the highest 2% near 2.6. The full list was thinned out, with the highest values kept by preference.
The compounds listed here are annotated with their NF-kB SEAP reporter activity.
measuredQuantity: NF-kB SEAP reporter activity

compound | testResult
CCC(=O)Nc1cccc(Oc2nc(Nc3ccc(N4CCN(C)CC4)cc3OC)ncc2Cl)c1 (library stock concentration (final ~1000-fold dilution): 10 mM) | 0.875
CCC(N)CNc1ccnc(-c2cc(-c3cnn(C)c3)ccc2O)n1.Cl.Cl (stereo not given) (library stock concentration (final ~1000-fold dilution): 10 mM) | 0.195
C=CC(=O)N1CCC(Oc2nc(Nc3ccc(N4CCC(N5CCN(C)CC5)CC4)cc3)c(C(N)=O)nc2CC)C1 (stereo not given) (library stock concentration (final ~1000-fold dilution): 10 mM) | 0.194
CC(NC(=O)/C(C#N)=C/c1cccc(Br)n1)c1ccccc1 (stereo not given) (library stock concentration (final ~1000-fold dilution): 10 mM) | 0.186
CCN(CC)CCOc1ccc(Nc2ncc3cc(-c4c(Cl)cccc4Cl)c(=O)n(C)c3n2)cc1 (library stock concentration (final ~1000-fold dilution): 10 mM) | 0.236
CCCCCCCCCCCCCCCCCC[N+](C)(C)C (library stock concentration (final ~1000-fold dilution): 10 mM) | 1.37
CS(=O)(=O)O.Cc1ccc(NC(=O)c2ccc(CN3CCN(C)CC3)cc2)cc1Nc1nccc(-c2cccnc2)n1 (library stock concentration (final ~1000-fold dilution): 10 mM) | 0.201
CN1CCN(Cc2ccc(NC(=O)Nc3ccc(Oc4ccnc(N)n4)cc3)cc2C(F)(F)F)CC1 (library stock concentration (final ~1000-fold dilution): 10 mM) | 0.197
COc1cc(C(=O)NC2CCN(C)CC2)ccc1Nc1ncc2c(n1)N(C1CCCC1)CC(F)(F)C(=O)N2C (library stock concentration (final ~1000-fold dilution): 10 mM) | 0.745
CCC(=C(c1ccccc1)c1ccc(OCCN(C)C)cc1)c1ccccc1 (library stock concentration (final ~1000-fold dilution): 10 mM) | 0.447
CCC1C(=O)N(C)c2cnc(Nc3ccc(C(=O)NC4CCN(C)CC4)cc3OC)nc2N1C1CCCC1 (stereo not given) (library stock concentration (final ~1000-fold dilution): 10 mM) | 1.3
CC(Oc1ccc2[nH]nc(/C=C/c3cnn(CCO)c3)c2c1)c1c(Cl)cncc1Cl (stereo not given) (library stock concentration (final ~1000-fold dilution): 10 mM) | 0.187
CCCCCOc1ccc(-c2ccc(-c3ccc(C(=O)NC4CC(O)C(O)NC(=O)C5C(O)C(C)CN5C(=O)C(C(C)O)NC(=O)C(C(O)C(O)c5ccc(O)cc5)NC(=O)C5CC(O)CN5C(=O)C(C(C)O)NC4=O)cc3)cc2)cc1 (stereo not given) (library stock concentration (final ~1000-fold dilution): 10 mM) | 0.545
CC1OC(OC2CCC3(C)C(CCC4(C)C3C=CC35OCC6(CCC(C)(C)CC63)C(O)CC45C)C2(C)CO)C(O)C(OC2OC(CO)C(O)C(O)C2O)C1O (stereo not given) (library stock concentration (final ~1000-fold dilution): 10 mM) | 0.257
O=C(/C=C/c1ccccc1)NC(NC(=S)Nc1ccc(Cl)cc1)C(Cl)(Cl)Cl (stereo not given) (library stock concentration (final ~1000-fold dilution): 10 mM) | 1.22
CCCSc1nc(NC2CC2c2ccc(F)c(F)c2)c2nnn(C3CC(OCCO)C(O)C3O)c2n1 (stereo not given) (library stock concentration (final ~1000-fold dilution): 10 mM) | 0.615
CNC(C)C(=O)NC(C(=O)N1CCCC1C(=O)NC1c2ccccc2CC1OCC#CC#CCOC1Cc2ccccc2C1NC(=O)C1CCCN1C(=O)C(NC(=O)C(C)NC)C1CCCCC1)C1CCCCC1 (stereo not given) (library stock concentration (final ~1000-fold dilution): 10 mM water) | 1.11
CCc1cnn2c(NCc3ccc[n+]([O-])c3)cc(N3CCCCC3CCO)nc12 (stereo not given) (library stock concentration (final ~1000-fold dilution): 10 mM) | 0.198
O=C(/C=C/c1ccc(CN(CCO)CCc2c[nH]c3ccccc23)cc1)NO (library stock concentration (final ~1000-fold dilution): 10 mM) | 1.51
O=C(Oc1cccc(F)c1OC(=O)c1cccc(O)c1)c1cccc(O)c1 (library stock concentration (final ~1000-fold dilution): 10 mM) | 0.597
